assay: Inhibition of papain by colorimetric assay
pKi: −log10 of the molar value.
measured endpoint: pKi

molecule: CN(C)c1cccc2c(S(=O)(=O)NCC(=O)NCC[S+]([O-])CCl)cccc12 (stereo unspecified)
measured endpoint: pKi
result value: 3.33

1: CC(C)(C)OC(=O)N[C@@H](Cc1ccccc1)C[S+]([O-])CCl (stereo partly specified)
2: CC(C)[C@@H](C[S+]([O-])CCl)NC(=O)OC(C)(C)C (stereo partly specified)
Prompt: Hi, I'm comparing 1 with 2 and wondering which one has the bigger number for pKi. Any idea? State your choice using its label.
Completion: 1
(1: 3.85, 2: 3.27)

a: C[C@@H](C[S+]([O-])CCl)NC(=O)OC(C)(C)C (stereo partly specified)
b: CC(C)C[C@@H](C[S+]([O-])CCl)NC(=O)OC(C)(C)C (stereo partly specified)
c: CC(C)(C)OC(=O)N[C@@H](Cc1ccccc1)C(=O)NCC[S+]([O-])CCl (stereo partly specified)
Prompt: // ascending sort on recorded pKi // format: requested-order list of labels
Completion: c, a, b
